- Tested on: Becap37 (human breast cancer cell)
- EXPERIMENTAL DETAILS: MTT growth inhibition of human solid tumor cells, 72 h
- Type: cell-based
- CONDITIONS: Homo sapiens
We label by threshold. Values of IC90 strictly beneath 8 µg/mL are label 1. Values of 8 µg/mL and up are label 0.

compound="COC(=O)C[C@](O)(CCCC(C)(C)OC(=O)c1ccco1)C(=O)O[C@@H]1C(OC)=C[C@]23CCCN2CCc2cc4c(cc2[C@H]13)OCO4 [BS-HH-059]" class="label 1"
compound="COC(=O)C[C@](O)(CCCC(C)(C)OC(=O)Cc1ccccc1)C(=O)O[C@@H]1C(OC)=C[C@]23CCCN2CCc2cc4c(cc2[C@H]13)OCO4 [BS-HH-074]" class="label 0"
compound="COC(=O)C[C@](O)(CCCC(C)(C)OC(C)=O)C(=O)O[C@@H]1C(OC)=C[C@]23CCCN2CCc2cc4c(cc2[C@H]13)OCO4 [BS-HH-002, 6-acetylhomoharringtonine]" class="label 0"
compound="COC(=O)C[C@](O)(CCCC(C)(C)OC(=O)C1CC1)C(=O)O[C@@H]1C(OC)=C[C@]23CCCN2CCc2cc4c(cc2[C@H]13)OCO4 [BS-HH-062]" class="label 0"
compound="COC(=O)C[C@](O)(CCCC(C)(C)O)C(=O)O[C@@H]1C(OC)=C[C@]23CCCN2CCc2cc4c(cc2[C@H]13)OCO4 [HHT, reference compound]" class="label 0"
